test system: rice; test: Rice pouch assay: growth of primary root and shoot; type: in vivo; details: Oryza sativa, 144 h; 10 ppm (10 mg/L); uracil moiety substitutions; vs control; read-out: Percent Change in Primary Root Length in Rice
change in vivo at 10 ppm by entry:
The response must be a number in % with no trailing unit.

Worked set:
Oc1cc(O)nc(SCc2ccccc2)n1 : 11.5
CCOC(=O)c1cnc(SCc2cccc(F)c2)nc1O : 9.5
Cc1cc(O)nc(SCc2ccccc2C)n1 : 8.6

For the molecule Cc1cc(O)nc(SCc2c(Cl)cccc2Cl)n1 , the measured change in vivo at 10 ppm on rice was 5.5

Response field change in vivo at 10 ppm (rice) for item Oc1nccc(SCc2cccc(F)c2)n1 : 10.6

change in vivo at 10 ppm value, target or system rice, for Nc1ccnc(SCc2cccc(F)c2)n1 : 2.9

Item: Cc1cc(O)nc(SCc2ccccc2Cl)n1 | System: rice | change in vivo at 10 ppm: -6.9

Test item Fc1cccc(CSc2ncccn2)c1 ; rice; reported change in vivo at 10 ppm was 5.1

// returns change in vivo at 10 ppm for Oc1nc(SCc2cccc(F)c2)nc2[nH]cnc12 with rice; value = 8.7

rice change in vivo at 10 ppm of Oc1cc(O)nc(SCc2cccc(F)c2)n1 is 4

Field change in vivo at 10 ppm (rice), entry Cc1cc(O)nc(SCc2ccccc2)n1 : 7.6
